Provenance of the data: ChEMBL document CHEMBL1154508

study.system: Voltage-gated inwardly rectifying potassium channel KCNH2 (Homo sapiens, UniProt Q12809)
Sequence (Q12809 whole entry): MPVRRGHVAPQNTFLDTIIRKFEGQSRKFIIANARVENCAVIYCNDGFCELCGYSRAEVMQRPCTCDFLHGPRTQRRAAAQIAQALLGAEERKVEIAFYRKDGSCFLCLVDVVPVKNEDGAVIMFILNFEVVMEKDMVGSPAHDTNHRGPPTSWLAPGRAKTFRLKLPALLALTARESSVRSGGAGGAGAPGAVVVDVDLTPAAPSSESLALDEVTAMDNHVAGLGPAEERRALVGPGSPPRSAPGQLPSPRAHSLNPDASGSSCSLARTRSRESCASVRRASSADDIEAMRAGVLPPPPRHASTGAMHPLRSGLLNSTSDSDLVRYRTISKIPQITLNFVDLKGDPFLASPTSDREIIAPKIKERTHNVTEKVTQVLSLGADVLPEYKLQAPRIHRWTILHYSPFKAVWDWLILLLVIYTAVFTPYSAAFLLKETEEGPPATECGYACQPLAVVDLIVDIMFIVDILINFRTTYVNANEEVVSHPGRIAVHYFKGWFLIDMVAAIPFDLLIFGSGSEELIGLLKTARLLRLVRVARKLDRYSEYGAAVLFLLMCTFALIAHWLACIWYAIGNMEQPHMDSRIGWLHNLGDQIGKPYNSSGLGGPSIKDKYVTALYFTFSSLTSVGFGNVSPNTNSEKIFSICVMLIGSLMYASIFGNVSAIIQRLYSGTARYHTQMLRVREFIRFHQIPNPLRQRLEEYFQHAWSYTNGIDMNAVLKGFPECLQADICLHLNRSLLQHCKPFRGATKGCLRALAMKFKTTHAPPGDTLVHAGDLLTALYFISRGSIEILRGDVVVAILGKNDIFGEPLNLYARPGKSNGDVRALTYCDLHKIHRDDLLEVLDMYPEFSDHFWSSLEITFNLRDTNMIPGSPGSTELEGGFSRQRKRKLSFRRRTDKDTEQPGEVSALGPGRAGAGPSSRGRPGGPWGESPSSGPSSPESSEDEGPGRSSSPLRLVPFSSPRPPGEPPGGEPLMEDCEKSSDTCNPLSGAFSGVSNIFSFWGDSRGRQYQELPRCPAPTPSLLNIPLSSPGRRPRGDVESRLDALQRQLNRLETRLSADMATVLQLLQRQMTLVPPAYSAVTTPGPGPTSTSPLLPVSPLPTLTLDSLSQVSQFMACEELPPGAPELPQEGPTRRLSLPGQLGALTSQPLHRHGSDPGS
outcome.measure: IC50

• CC(C)COc1ccc(Cl)cc1-c1ccccc1-c1cccc(C(=O)[O-])n1.[Na+] = > 31.6 µM

* * *

experiment.summary: Oral bioavailability in cynomolgus monkey at 3 mg/kg
Assay type: ADME, organism-based, Macaca fascicularis
experimental.parameters: in vivo
outcome.measure: bioavailability

• CC(C)COc1ccc(Cl)cc1-c1ccccc1-c1cccc(C(=O)[O-])n1.[Na+] = 34%

* * *

study.system: Peroxisome proliferator-activated receptor gamma (Homo sapiens)
Sequence (P37231 whole entry): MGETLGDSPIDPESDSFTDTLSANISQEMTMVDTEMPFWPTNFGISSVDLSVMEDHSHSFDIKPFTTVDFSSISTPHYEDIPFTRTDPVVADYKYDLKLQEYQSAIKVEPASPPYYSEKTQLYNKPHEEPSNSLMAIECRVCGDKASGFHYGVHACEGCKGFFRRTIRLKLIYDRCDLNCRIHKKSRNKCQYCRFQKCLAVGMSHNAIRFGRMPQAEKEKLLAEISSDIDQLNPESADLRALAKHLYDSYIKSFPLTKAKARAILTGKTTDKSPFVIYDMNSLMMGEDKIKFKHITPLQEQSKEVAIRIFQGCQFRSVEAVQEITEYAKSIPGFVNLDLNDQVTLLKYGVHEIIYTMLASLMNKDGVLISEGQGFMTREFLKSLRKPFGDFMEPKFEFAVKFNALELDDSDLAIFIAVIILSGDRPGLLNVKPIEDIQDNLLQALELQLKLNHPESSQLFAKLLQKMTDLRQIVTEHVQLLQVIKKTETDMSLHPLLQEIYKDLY
experiment.summary: Binding affinity to PPARgamma
outcome.measure: Ki (µM)

• CC(C)COc1ccc(Cl)cc1-c1ccccc1-c1cccc(C(=O)[O-])n1.[Na+] = 12.6

* * *

study.system: Prostaglandin E2 receptor EP1 subtype (Homo sapiens, UniProt P34995)
Sequence (P34995 whole entry): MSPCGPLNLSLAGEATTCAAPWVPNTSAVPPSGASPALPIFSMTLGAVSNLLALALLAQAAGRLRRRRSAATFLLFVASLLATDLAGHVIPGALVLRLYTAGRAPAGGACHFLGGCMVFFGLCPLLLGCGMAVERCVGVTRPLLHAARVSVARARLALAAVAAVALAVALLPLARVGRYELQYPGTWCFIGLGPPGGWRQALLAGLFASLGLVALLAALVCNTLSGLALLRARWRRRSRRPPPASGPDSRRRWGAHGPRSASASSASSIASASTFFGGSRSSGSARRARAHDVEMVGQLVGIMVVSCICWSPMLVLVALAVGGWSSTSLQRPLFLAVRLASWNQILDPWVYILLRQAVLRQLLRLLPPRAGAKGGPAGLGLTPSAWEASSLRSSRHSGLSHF
experiment.summary: Binding affinity to human EP1 receptor
pIC50: −log10 of the molar value.
outcome.measure: pIC50

• CC(C)COc1ccc(Cl)cc1-c1ccccc1-c1cccc(C(=O)[O-])n1.[Na+] = 7.80

* * *

experiment.summary: Drug level in brain of complete Freund's adjuvant-induced rat inflammatory pain model at 10 mg/kg, po after 1 hr
Format: ADME, organism-based
Set-up: dose 10 mg/kg, route oral
experimental.parameters: read-out: Drug uptake
outcome.measure: concentration at 1 h (µM)

- CC(C)COc1ccc(Cl)cc1-c1ccccc1-c1cccc(C(=O)[O-])n1.[Na+]: 7.26

* * *

experiment.summary: Drug level in mouse blood at 3 mg/kg, po after 0.5 hrs
Assay type: ADME, organism-based
Set-up: dose 3 mg/kg, route oral
experimental.parameters: read-out: Drug uptake
outcome.measure: concentration at 0.5 h

- CC(C)COc1ccc(Cl)cc1-c1ccccc1-c1cccc(C(=O)[O-])n1.[Na+]: 1120 nM

* * *

experiment.summary: Solubility in fed state simulated intestinal fluid after 2 hrs
Format: physicochemical
outcome.measure: solubility at 2 h

- CC(C)COc1ccc(Cl)cc1-c1ccccc1-c1cccc(C(=O)[O-])n1.[Na+]: 1.22 mg/mL

* * *

experiment.summary: Drug level in blood of sub-chronic rat joint pain efficacy model treatment group at 20 mg/kg bid measured on day 5 after 1 hr post dose
Assay type: ADME, organism-based
Parameters: dose 20 mg/kg
experimental.parameters: read-out: Drug uptake
outcome.measure: concentration at 1 h (µM)

* CC(C)COc1ccc(Cl)cc1-c1ccccc1-c1cccc(C(=O)[O-])n1.[Na+] | 5.53

* * *

study.system: Peroxisome proliferator-activated receptor delta (Homo sapiens)
Sequence (Q03181 whole entry): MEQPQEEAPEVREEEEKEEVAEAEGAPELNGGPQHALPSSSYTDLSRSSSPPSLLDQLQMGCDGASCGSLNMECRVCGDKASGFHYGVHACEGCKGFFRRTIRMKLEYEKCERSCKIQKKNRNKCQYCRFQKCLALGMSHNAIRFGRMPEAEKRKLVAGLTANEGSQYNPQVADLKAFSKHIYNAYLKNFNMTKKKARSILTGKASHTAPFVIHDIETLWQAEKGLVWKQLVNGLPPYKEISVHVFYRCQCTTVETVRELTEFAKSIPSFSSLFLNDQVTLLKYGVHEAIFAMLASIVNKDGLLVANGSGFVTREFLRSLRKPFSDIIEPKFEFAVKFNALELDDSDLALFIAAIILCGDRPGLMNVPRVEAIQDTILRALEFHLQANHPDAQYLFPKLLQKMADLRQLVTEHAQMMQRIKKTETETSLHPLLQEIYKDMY
experiment.summary: Activity at PPARdelta
outcome.measure: EC50

* CC(C)COc1ccc(Cl)cc1-c1ccccc1-c1cccc(C(=O)[O-])n1.[Na+] | > 10 µM

* * *

experiment.summary: Drug level in blood of complete Freund's adjuvant-induced rat inflammatory pain model at 3 mg/kg, po after 1 hr
Type: ADME, organism-based
Parameters: dose 3 mg/kg, route oral
experimental.parameters: read-out: Drug uptake
outcome.measure: concentration at 1 h (µM)

- CC(C)COc1ccc(Cl)cc1-c1ccccc1-c1cccc(C(=O)[O-])n1.[Na+]: 3.33

* * *

experiment.summary: Solubility in simulated gastric fluid after 2 hrs
Format: physicochemical
outcome.measure: solubility at 2 h (µg/mL)

- CC(C)COc1ccc(Cl)cc1-c1ccccc1-c1cccc(C(=O)[O-])n1.[Na+]: 33

* * *

experiment.summary: Drug level in brain of complete Freund's adjuvant-induced rat inflammatory pain model at 1 mg/kg, po after 1 hr
Format: ADME, organism-based
Parameters: dose 1 mg/kg, route oral
experimental.parameters: read-out: Drug uptake
outcome.measure: concentration at 1 h (nM)

• CC(C)COc1ccc(Cl)cc1-c1ccccc1-c1cccc(C(=O)[O-])n1.[Na+] = 317
